- System: SMMC-7721
- method_description: Cytotoxicity against human SMMC-7721 cells assessed as reduction in cell viability incubated for 48 hrs by MTT assay
- Assay type: functional, cell-based
- measurement_conditions: SMMC-7721, 48 h
Exercise: state measured IC50 for each of the compounds provided.

Study these solved cases before continuing.
CC[C@@]1(OC(=O)NC2CCCC2)C(=O)OCc2c1cc1n(c2=O)Cc2cc3ccccc3nc2-1 : > 10 µM
CC[C@@]1(OC(=O)OC2CCCC2)C(=O)OCc2c1cc1n(c2=O)Cc2cc3ccccc3nc2-1 : > 10 µM
CC[C@@]1(OC(=O)NC2C[Se][Se]C2)C(=O)OCc2c1cc1n(c2=O)Cc2cc3ccccc3nc2-1 : > 10 µM
CC[C@@]1(OC(=O)OCCSSCCO)C(=O)OCc2c1cc1n(c2=O)Cc2cc3ccccc3nc2-1 : > 10 µM
CC[C@@]1(OC(=O)OC2(CO)C[Se][Se]C2)C(=O)OCc2c1cc1n(c2=O)Cc2cc3ccccc3nc2-1 : > 10 µM
CC[C@@]1(OC(=O)OCC[Se][Se]CCO)C(=O)OCc2c1cc1n(c2=O)Cc2cc3ccccc3nc2-1 : 6.4 µM

Provide reported IC50 for each item, in the same order as listed.
1. CC[C@@]1(O)C(=O)OCc2c1cc1n(c2=O)Cc2cc3ccccc3nc2-1 [CAMPTOTHECIN]
2. CC[C@@]1(OC(=O)OCCCCCCO)C(=O)OCc2c1cc1n(c2=O)Cc2cc3ccccc3nc2-1

Reply |
["> 10 µM", "> 10 µM"]
